target-system: rHDAC8 (Homo sapiens)
Construct: FLAG; made in house; host or cells: baculovirus-infected Sf21 insect cells
Sequence (Q9BY41 whole entry): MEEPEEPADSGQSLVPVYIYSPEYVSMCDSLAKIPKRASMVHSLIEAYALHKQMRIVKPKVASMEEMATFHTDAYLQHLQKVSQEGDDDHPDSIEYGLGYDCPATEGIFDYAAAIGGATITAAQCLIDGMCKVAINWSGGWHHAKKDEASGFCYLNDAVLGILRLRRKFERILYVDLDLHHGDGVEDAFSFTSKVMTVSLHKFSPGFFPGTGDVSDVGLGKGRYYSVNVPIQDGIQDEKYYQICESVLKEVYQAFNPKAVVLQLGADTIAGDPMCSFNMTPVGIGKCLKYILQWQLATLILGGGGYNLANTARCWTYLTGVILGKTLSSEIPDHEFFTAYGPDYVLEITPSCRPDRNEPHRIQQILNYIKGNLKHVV
procedure-summary: rHDAC8 enzymatic assay (recombinant FLAG-HDAC8)
Assay type: biochemical
experimental-context: FLAG-HDAC8 from insect cells; 50 μM Ac-RHK(Ac)K(Ac)-AMC, 3 h at 30° C.; read-out: rHDAC8 [pIC50] (converted)
Where a name gives a salt, the structure may show the parent alone.
Give measured IC50 for each item. Keep answers brief.

O=C(NO)c1ccc2c(c1)CCN(C(=O)C1CC1)C2 | 1 to 10 µM
O=C(NO)c1ccc2c(c1)CCN(C(=O)Cc1c[nH]c3ccccc13)C2 [Example 1, hydrochloride] | 1 to 10 µM
O=C(NO)c1ccc2c(c1)CN(C(=O)Cc1ccccn1)CC2 [Example 21, hydrochloride] | 0.01 to 1 µM
CC#CC(=O)N1CCc2ccc(C(=O)NO)cc2C1 | 0.01 to 1 µM
CN(C)CCCC(=O)N1CCc2cc(C(=O)NO)ccc2C1 [Example 9, hydrochloride] | 1 to 10 µM

Provide reported IC50 for each item, in the same order as listed.
1. O=C(NO)c1ccc2c(c1)CN(C(=O)C1CCOC1)CC2 (stereo not drawn)
2. O=C(NO)c1ccc2c(c1)CCN(C(=O)C1CCC1)C2
3. O=C(NO)c1ccc2c(c1)CCN(C(=O)C1CCOC1)C2 (stereo not drawn)
4. Cc1ccc(C(=O)N2CCc3ccc(C(=O)NO)cc3C2)cc1

## Result
0.01 to 1 µM
1 to 10 µM
1 to 10 µM
0.01 to 1 µM

----------
Give measured IC50 at 72 h for each item. Keep answers brief.
procedure-summary: Cellular cytotoxicity assay (Alamar Blue/Resazurin), HeLa
Assay type: cell-based
experimental-context: human, HeLa cells, 72 hours incubation, Resazurin, read-out: HeLa Cytotoxicity [pIC50] (converted)
Experimental: The anti-proliferative activity of the compounds as described herein, is evaluated with various solid and hematological cancer cell lines using the Alamar Blue (Resazurin) cell viability assay (O'Brien et al, Eur J Biochem 267, 5421-5426, 2000). […] After 4 hours incubation at 37° C. the fluorescence is measured at an extinction of 544 nm and an emission of 590 nm. […] Viabilities are expressed as % values. […]
Structures can show the parent of a compound that is named as a salt.

Solved entries (count: 5):
O=C(NO)c1ccc2c(c1)CN(C(=O)Cc1cccnc1)CC2 [Example 19, hydrochloride] | 1 to 100 µM
Cc1nccn1CC(=O)N1CCc2cc(C(=O)NO)ccc2C1 [Example 10, hydrochloride] | > 100 µM
O=C(NO)c1ccc2c(c1)CCN(C(=O)C1CCC1)C2 [Example 3] | 1 to 100 µM
CNC(=O)N1CCc2cc(C(=O)NO)ccc2C1 [Example 4] | > 100 µM
O=C(NO)c1ccc2c(c1)CN(C(=O)Cc1c[nH]c3ccccc13)CC2 [Example 18] | 1 to 100 µM

Provide reported IC50 at 72 h for each item, in the same order as listed.
1. COCCOCC(=O)N1CCc2cc(C(=O)NO)ccc2C1 [Example 11]
2. COc1ccc2[nH]c(C(=O)N3CCc4cc(C(=O)NO)ccc4C3)cc2c1 [Example 15]
3. CC#CC(=O)N1CCc2ccc(C(=O)NO)cc2C1 [Example 17]
4. O=C(NO)c1ccc2c(c1)CCN(C(=O)C1CC1)C2 [Example 16]
5. CN(C)CCCC(=O)N1CCc2cc(C(=O)NO)ccc2C1 [Example 9, hydrochloride]
6. O=C(NO)c1ccc2c(c1)CN(C(=O)C1CCOC1)CC2 (centres unmarked) [Example 20]
7. COCCCOC(=O)N1CCc2cc(C(=O)NO)ccc2C1 [Example 6]

## Result
> 100 µM
1 to 100 µM
1 to 100 µM
> 100 µM
1 to 100 µM
> 100 µM
> 100 µM

Provide reported IC50 at 72 h for each item, in the same order as listed.
1. CC(=O)N1CCc2cc(C(=O)NO)ccc2C1 [Example 12]
2. O=C(NO)c1ccc2c(c1)CCN(C(=O)Cc1ccccn1)C2 [Example 14, hydrochloride]

## Result
["> 100 µM", "1 to 100 µM"]

----------
Give measured IC50 for each item. Keep answers brief.
target-system: rHDAC3 (Homo sapiens)
Construct: FLAG; made in house; host or cells: baculovirus-infected Sf21 insect cells
Sequence (O15379 whole entry): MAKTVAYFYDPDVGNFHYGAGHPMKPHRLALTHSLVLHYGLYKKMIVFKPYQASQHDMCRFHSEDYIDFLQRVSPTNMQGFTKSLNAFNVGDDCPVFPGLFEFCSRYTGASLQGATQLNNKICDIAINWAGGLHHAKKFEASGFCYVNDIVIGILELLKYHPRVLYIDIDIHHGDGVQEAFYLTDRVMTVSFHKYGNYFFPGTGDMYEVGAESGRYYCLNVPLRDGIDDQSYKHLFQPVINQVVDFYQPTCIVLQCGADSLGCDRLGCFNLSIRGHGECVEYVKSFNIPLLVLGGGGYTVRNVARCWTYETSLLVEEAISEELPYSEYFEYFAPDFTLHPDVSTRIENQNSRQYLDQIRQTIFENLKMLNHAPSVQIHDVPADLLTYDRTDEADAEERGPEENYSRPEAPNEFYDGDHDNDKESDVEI
Sequence (Q9Y618 whole entry partner): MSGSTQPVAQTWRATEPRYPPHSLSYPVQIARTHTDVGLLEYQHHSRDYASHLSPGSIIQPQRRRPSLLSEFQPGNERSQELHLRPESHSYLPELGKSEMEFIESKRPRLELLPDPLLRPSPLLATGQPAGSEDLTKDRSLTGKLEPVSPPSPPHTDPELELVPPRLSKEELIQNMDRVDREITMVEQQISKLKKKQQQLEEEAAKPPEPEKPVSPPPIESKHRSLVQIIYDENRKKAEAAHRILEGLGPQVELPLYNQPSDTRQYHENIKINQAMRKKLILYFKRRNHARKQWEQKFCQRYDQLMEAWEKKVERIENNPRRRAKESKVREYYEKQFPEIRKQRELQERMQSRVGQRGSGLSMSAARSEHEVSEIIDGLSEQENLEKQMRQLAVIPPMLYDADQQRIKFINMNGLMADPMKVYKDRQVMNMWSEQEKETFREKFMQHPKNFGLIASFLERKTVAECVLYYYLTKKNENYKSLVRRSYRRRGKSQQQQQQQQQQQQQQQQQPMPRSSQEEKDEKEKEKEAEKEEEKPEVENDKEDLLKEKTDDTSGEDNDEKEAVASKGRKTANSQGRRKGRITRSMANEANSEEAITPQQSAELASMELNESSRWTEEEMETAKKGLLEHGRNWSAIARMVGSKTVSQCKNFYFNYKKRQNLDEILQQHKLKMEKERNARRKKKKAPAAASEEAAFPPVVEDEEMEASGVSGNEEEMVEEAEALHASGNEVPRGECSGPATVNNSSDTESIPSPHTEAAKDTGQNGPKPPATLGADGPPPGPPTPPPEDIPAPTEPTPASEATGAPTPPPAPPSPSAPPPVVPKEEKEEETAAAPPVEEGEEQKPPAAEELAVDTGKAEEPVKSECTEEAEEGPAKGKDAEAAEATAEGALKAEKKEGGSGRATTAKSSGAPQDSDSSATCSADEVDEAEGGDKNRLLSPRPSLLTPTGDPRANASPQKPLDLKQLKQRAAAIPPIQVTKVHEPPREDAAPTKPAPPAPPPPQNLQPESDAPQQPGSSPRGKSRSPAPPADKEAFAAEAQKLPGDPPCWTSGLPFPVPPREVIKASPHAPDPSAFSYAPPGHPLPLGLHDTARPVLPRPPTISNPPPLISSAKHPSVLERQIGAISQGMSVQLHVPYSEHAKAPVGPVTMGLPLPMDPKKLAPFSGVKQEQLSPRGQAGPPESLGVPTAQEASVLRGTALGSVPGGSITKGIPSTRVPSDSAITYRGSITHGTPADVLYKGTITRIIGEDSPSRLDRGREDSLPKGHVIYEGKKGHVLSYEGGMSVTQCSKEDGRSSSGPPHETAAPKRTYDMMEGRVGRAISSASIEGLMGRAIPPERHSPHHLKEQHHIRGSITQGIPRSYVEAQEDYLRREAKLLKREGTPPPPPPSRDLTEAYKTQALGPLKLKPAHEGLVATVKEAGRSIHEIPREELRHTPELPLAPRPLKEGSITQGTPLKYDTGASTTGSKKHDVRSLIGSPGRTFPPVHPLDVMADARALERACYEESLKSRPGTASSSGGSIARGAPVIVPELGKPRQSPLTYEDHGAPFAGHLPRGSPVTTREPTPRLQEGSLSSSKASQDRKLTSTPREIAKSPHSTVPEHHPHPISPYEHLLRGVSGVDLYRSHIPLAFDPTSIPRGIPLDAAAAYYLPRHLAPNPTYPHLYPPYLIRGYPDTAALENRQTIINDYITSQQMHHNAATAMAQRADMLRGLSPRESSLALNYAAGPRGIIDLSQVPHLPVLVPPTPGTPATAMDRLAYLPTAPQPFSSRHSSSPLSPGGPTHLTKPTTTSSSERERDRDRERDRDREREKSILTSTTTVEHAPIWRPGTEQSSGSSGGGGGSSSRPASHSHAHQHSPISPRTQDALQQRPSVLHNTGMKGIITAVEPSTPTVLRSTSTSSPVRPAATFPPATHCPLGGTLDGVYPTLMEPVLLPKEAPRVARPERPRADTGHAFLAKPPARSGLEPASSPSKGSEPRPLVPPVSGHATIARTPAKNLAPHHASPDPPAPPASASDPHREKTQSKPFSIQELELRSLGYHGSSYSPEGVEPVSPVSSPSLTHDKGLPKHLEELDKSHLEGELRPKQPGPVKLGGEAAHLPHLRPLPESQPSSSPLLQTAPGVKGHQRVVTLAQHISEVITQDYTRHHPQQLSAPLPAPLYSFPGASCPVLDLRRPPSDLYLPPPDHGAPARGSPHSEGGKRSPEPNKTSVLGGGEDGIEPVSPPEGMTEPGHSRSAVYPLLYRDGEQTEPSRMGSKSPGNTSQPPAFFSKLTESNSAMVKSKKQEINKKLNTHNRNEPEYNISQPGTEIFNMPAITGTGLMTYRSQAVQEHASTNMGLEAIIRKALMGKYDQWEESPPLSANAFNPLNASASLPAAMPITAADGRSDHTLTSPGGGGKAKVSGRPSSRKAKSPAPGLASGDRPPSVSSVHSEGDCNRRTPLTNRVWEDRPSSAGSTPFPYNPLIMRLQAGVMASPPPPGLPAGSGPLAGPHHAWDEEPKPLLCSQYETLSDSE
procedure-summary: rHDAC3 enzymatic assay (recombinant FLAG-HDAC3)
Format: biochemical
experimental-context: FLAG-HDAC3 from insect cells; 6 μM Ac-NH-GGK(Ac)-AMC, 2 h at 30° C.; read-out: rHDAC3 [pIC50] (converted)
Counter-ions that a name gives are not always drawn.

Solved entries (count: 5):
CC#CC(=O)N1CCc2ccc(C(=O)NO)cc2C1 | 10 to 100 µM
O=C(NO)c1ccc2c(c1)CCN(C(=O)CCc1cccnc1)C2 [Example 7, hydrochloride] | 10 to 100 µM
CN(C)CCCC(=O)N1CCc2cc(C(=O)NO)ccc2C1 [Example 9, hydrochloride] | 10 to 100 µM
CC(=O)N1CCc2cc(C(=O)NO)ccc2C1 | 10 to 100 µM
COCCCNC(=O)N1CCc2cc(C(=O)NO)ccc2C1 | 10 to 100 µM

Provide reported IC50 for each item, in the same order as listed.
1. O=C(NO)c1ccc2c(c1)CN(C(=O)Cc1c[nH]c3ccccc13)CC2
2. O=C(NO)c1ccc2c(c1)CCN(C(=O)C1CCC1)C2
3. O=C(NO)c1ccc2c(c1)CN(C(=O)NCCc1ccccc1)CC2
4. O=C(NO)c1ccc2c(c1)CCN(C(=O)C1CC1)C2
5. COc1ccc2[nH]c(C(=O)N3CCc4cc(C(=O)NO)ccc4C3)cc2c1
6. O=C(NO)c1ccc2c(c1)CN(C(=O)Cc1cccnc1)CC2 [Example 19, hydrochloride]
7. O=C(NO)c1ccc2c(c1)CCN(C(=O)Cc1ccccn1)C2 [Example 14, hydrochloride]
8. O=C(NO)c1ccc2c(c1)CN(C(=O)C1CCOC1)CC2 (centres unmarked)

## Result
["1 to 10 µM", "10 to 100 µM", "1 to 10 µM", "10 to 100 µM", "1 to 10 µM", "10 to 100 µM", "10 to 100 µM", "10 to 100 µM"]

Provide reported IC50 for each item, in the same order as listed.
1. COCCOCC(=O)N1CCc2cc(C(=O)NO)ccc2C1
2. O=C(NO)c1ccc2c(c1)CCN(C(=O)Cc1c[nH]c3ccccc13)C2 [Example 1, hydrochloride]
3. CNC(=O)N1CCc2cc(C(=O)NO)ccc2C1

## Result
["10 to 100 µM", "1 to 10 µM", "10 to 100 µM"]

Provide reported IC50 for each item, in the same order as listed.
1. O=C(NO)c1ccc2c(c1)CCN(C(=O)Cc1cccnc1)C2 [Example 8, hydrochloride]
2. O=C(NO)c1ccc2c(c1)CN(C(=O)Cc1ccccn1)CC2 [Example 21, hydrochloride]
3. COc1ccc2[nH]c(C(=O)N3CCc4ccc(C(=O)NO)cc4C3)cc2c1

## Result
10 to 100 µM
10 to 100 µM
1 to 10 µM

Provide reported IC50 for each item, in the same order as listed.
1. Cc1nccn1CC(=O)N1CCc2cc(C(=O)NO)ccc2C1 [Example 10, hydrochloride]
2. COCCCOC(=O)N1CCc2cc(C(=O)NO)ccc2C1
3. Cc1ccc(C(=O)N2CCc3ccc(C(=O)NO)cc3C2)cc1
4. O=C(NO)c1ccc2c(c1)CCN(C(=O)C1CCOC1)C2 (centres unmarked)

## Result
["10 to 100 µM", "10 to 100 µM", "10 to 100 µM", "10 to 100 µM"]

----------
Give measured IC50 at 72 h for each item. Keep answers brief.
procedure-summary: Cellular cytotoxicity assay (Alamar Blue/Resazurin), HeLa
Format: cell-based
experimental-context: human, HeLa cells, 72 hours incubation, Resazurin, read-out: HeLa Cytotoxicity [pIC50] (converted)
Where a name gives a salt, the structure may show the parent alone.

Solved entries (count: 2):
O=C(NO)c1ccc2c(c1)CCN(C(=O)C1CCOC1)C2 (stereo not drawn) | > 100 µM
COc1ccc2[nH]c(C(=O)N3CCc4ccc(C(=O)NO)cc4C3)cc2c1 | 1 to 100 µM

Provide reported IC50 at 72 h for each item, in the same order as listed.
1. O=C(NO)c1ccc2c(c1)CN(C(=O)Cc1ccccn1)CC2 [Example 21, hydrochloride]
2. Cc1ccc(C(=O)N2CCc3ccc(C(=O)NO)cc3C2)cc1
3. O=C(NO)c1ccc2c(c1)CCN(C(=O)CCc1cccnc1)C2 [Example 7, hydrochloride]
4. O=C(NO)c1ccc2c(c1)CN(C(=O)NCCc1ccccc1)CC2

## Result
1: 1 to 100 µM; 2: 1 to 100 µM; 3: > 100 µM; 4: 1 to 100 µM
